# Tested on: Staphylococcus sp.
# method_description: in vitro antibacterial evaluation, MIC by broth dilution
# Type: cell-based
# assay_conditions: strain GC 4546; broth dilution, 18 hours at 35° C.
MIC Staphylococcus haemolyticus (GC 4546): recorded values

Worked set:
Problem: Name the recorded MIC Staphylococcus haemolyticus (GC 4546) for CC(c1ccccc1)C1NC(=O)CNC(=O)C(CO)NC(=O)C(C(O)C2CN(Cc3ccccc3-c3ccccc3)C(=N)N2C2OC(CO)C(O)C(O)C2O)NC(=O)C(C(O)C2CNC(=N)N2)NC(=O)C(Cc2ccc(OC3OC(CO)C(OC4OC(CO)C(O)C(O)C4O)C(O)C3O)cc2)NC1=O (stereo not shown) .
Solution: >128 µg/mL

Problem: Name the recorded MIC Staphylococcus haemolyticus (GC 4546) for CC(c1ccccc1)C1NC(=O)CNC(=O)C(CO)NC(=O)C(C(O)C2CN(Cc3ccc(-c4ccccc4)cc3)C(=N)N2C2OC(CO)C(O)C(O)C2O)NC(=O)C(C(O)C2CNC(=N)N2)NC(=O)C(Cc2ccc(OC3OC(CO)C(OC4OC(CO)C(O)C(O)C4O)C(O)C3O)cc2)NC1=O (stereo not shown) [Example 66a] .
Solution: >128 µg/mL

Problem: Name the recorded MIC Staphylococcus haemolyticus (GC 4546) for CC(C1CCCCC1)C1NC(=O)CNC(=O)C(CO)NC(=O)C(C(O)C2CNC(=N)N2C2OC(CO)C(O)C(O)C2O)NC(=O)C(C(O)C2CNC(=N)N2)NC(=O)C(C[C@H]2CC[C@@H](O)CC2)NC1=O (stereo partly shown) .
Solution: >128 µg/mL

Now look at this one.
Problem: Name the recorded MIC Staphylococcus haemolyticus (GC 4546) for CC(C)C(=O)Nc1cc(CC2NC(=O)C(C(C)c3ccccc3)NC(=O)CNC(=O)C(CO)NC(=O)C(C(O)C3CNC(=N)N3C3OC(CO)C(O)C(O)C3O)NC(=O)C(C(O)C3CNC(=N)N3)NC2=O)ccc1O (stereo not shown) .
Solution: >128 µg/mL
